- tgt: T1, SARS-COV-2 RBD (SARS-COV-2, UniProt P0DTC2 319-539)
- T1 construct: also called WT RBD
- assay_comment: ELISA, RBD coated
Below, each entry is listed with its recorded EC50.
recorded_endpoint: EC50 (ng/mL)

• C1032 (antibody, V domains shown, IgG; V domains only) VH: EVQLVESGGSLVKPGGSLRLSCVASGLTFNHAWMSWVRQAPGKGLEWVGRIKSKIDGGTTDYAAPVKGRFTISRDDSKSTQYLQMNSLKTEDTAVYYCTTDCFWRLGGTTCYEHDAFDVWGQGTMVTVS VL: DIQMTQSPSSLSASVGDRVTITCRASQAIATFLNWYQQKPGKAPKLLIYAASSLQSGVPSRFSGSGSGTDFTLTISSLQPEDFATYYCQQSYNSLHFGGGTKVEIK = 2.89
• C877 (antibody, V domains shown, IgG; V domains only) VH: EVQLVESGGGLIPPGGSLRLSCAASGIIVSRNYMSWVRQTPGKGLEWVSVMYAGGTKEYADSVKGRFIISRDDSNNTLYLQMNSLRAEDTAVYYCARDLIVLGVDVWGQGTTVTVSS VL: DIQLTQSPSFLSASVGDRVTITCRASQGISNYLAWYQQKPGKAPKLLIYAASTLQSGVPSRFSGSGSGTEFTLTISSLQPEDFATYYCQLLNSYPMCSFGQGTKLEIK = 2.53
• C871 (antibody, V domains shown, IgG; V domains only) VH: EVQLVESGGGLIQTGGSLKLSCAASGFIVTNNYMSWVRQAPGKGLEWVSVIYSGGTTYYADSVKGRFTISRDISKNTLYLQMNSLKAEDTAVYYCAREGDVEGISDSWSGYSRDRYYFDHWGQGTLVTVSS VL: QSALTQPASVSGSPGQSITISCTGTSSDVGGYNYVSWYQQHPGKAPKLMIYDVSNRPPTISNRFSGSKSGNTASLIISGLQPEDEADYYCSSFTSNNTRVFGTGTKVTVL = 1.52
• C1036 (antibody, V domains shown, IgG; V domains only) VH: EVQLVESGGGLIQPGGSLRLSCAASGLIVSRNYMNWVRQVPGKGLEWVSVMYAGGSTFYADSVKGRFTISRDDSKNTLYLQMNSLRPEDTAVYYCARESYGMDVWGQGTTVTVSS VL: EIVLTQSPGTLSLSPGERATLSCRASQSISSTYLAWYQQKPGQAPRLLIYGASSRATGIPDRFSGSGSGTDFTLTISRLEPEDFAVYYCQQYVTSPWTFGQGTKVEIK = 1.76
• C838 (antibody, V domains shown, IgG; V domains only) VH: EVQLVESGGGLVQPGKSLRLSCTASGFTFEDYAMHWVRQAPGKGLEWVSGINWKSGSRGYADSAKGRFTISGNTAKNTLHLQMNSLRAEDTAFYYCAKAGVRNIAAAGPDLNFDFWGQGTLVTVSS VL: EIVLTQSPATLSLSPGERATLSCRASQSVGTYLAWYQHKLGQAPRLLIYDATKRATGIPARFSGSGSGTDFTLTISSLEPEDFAIYYCQQRITFGQGTRLEIK = 3.03
• C1012 (antibody, V domains shown, IgG; V domains only) VH: QVQLVQSGAEVKKPGSSVKVSCKASGGTVNNYAINWVRQAPGQGLEWMGGIVPIFGTPNYAQKFQGRVTITADESTSTAYMELSSLRSEDTAVYYCAKVSLTLPIAAAPRFWFDSWGQGTLVTVSS VL: EIVMTQSPATLSVSPGERATLSCRASQSVSSHLAWYQQKPGQAPRLLIYGASTRATGIPARFSGSGSGTEFTLTISSLQSEDFAVYYCQQYHNWPPALTFGGGTKVEIK = 3.29
• C854 (antibody, V domains shown, IgG; V domains only) VH: EVQLVESGGGLIQPGGSLRLSCAASGITVSSNYMNWVRQAPGKGLEWVSVLYAGGSTFYADSVKGRFTISRDDSKNTLYLQMDSLRAEDTAVYYCARDLSSSGGFDYWGQGTLVTVSS VL: EIVLTQSPGTLSLSPGERATLSCRASQSVSSSYLAWYQQKPGQAPRLLIYGASSRATGIPDRFSGRGSGTDFTLTISRLEPEDFAVYYCQQYGSLYTFGQGTKLEIK = 2.57
• C887 (antibody, V domains shown, IgG; V domains only) VH: EVQLVESGGDLVQPGGSLRLSCAASGFTFTTYSMSWVRQAPGKGLEWISYINSGSANIHYADSVKGRFTVSRDNAKNSLYLQMNSLRDEDTAVYYCARGDCLSSSCYSLDYWGQGALVTVSS VL: DIQMTQSPSSLSASVGDRVTITCRASQSITSYLSWYLQKPGEAPKLLIYAASILQSGVPSRFGGNGSGTDFTLTISSLQPEDFATFYCQQTYRSPLTFGGGTKVEIK = 3.2
• C986 (antibody, V domains shown, IgG; V domains only) VH: EVQLVQSGAEVKKPGETLKISCKGSGDSFSNYWIGWVRQSPGKGLEWMAIVYPGDSDARYSPSFQGQVTISADKSVTTAYLKWSSLKASDTAIYYCVRGLPVDWYFDLWGRGTLVTVSS VL: QSVLTQPPSVSGAPEQRVTISCTGSSSNIGAGHDVHWYQQLPGTAPKLLIYNNNNRPSGVPDRFSGSKSGASASLAISGLQAEDEAEYYCQSYDKSLSVLYVLGTGTKVTV = 3.36
• C981 (antibody, V domains shown, IgG; V domains only) VH: EVQLVESGGGLVQPGGSLRLSCAASGFTFSNYDMHWVRQVTGNGLEWVAAIGTSGDTYYPDSVKGRFTISRENVKNSLFLQMNSLRAGDTAVYYCARGGSSSWLWYFDLWGRGTLV VL: DIQMTQSPSSLSASVGDRVTITCRASQSISSHLNWYQQKPGKVPKLLIYAASTLQSGVPSRFSGSGSGTDFTLTISSLQPEDFATYYCQQSYSMPPVTFGQGTRLEIK = 2.12
